test: Mouse plasma stability protocol, up to 1 h (Examples 16-18); settings: mouse plasma, 37° C., 10 μM

{"Compound": "CCc1c2c(nc3ccc(OC(=O)N(C)C4CCN(C(=O)CCn5ccc6cc(-n7c(O)nnc7-c7cc(C(C)C)c(O)cc7O)ccc65)CC4)cc13)-c1cc3c(c(=O)n1C2)COC(=O)C3(O)CC (stereo not drawn)", "% Remaining (1 h), %": 18.0}
{"Compound": "CCNC(=O)c1nnc(-c2cc(C(C)C)c(O)cc2O)n1-c1ccc(Oc2ccc(C(=O)N3CCC(N(C)C(=O)Oc4ccc5nc6c(c(CC)c5c4)Cn4c-6cc5c(c4=O)COC(=O)C5(O)CC)CC3)cc2)cc1 (stereo not drawn)", "% Remaining (1 h), %": 72.4}
{"Compound": "CCNC(=O)c1nnc(-c2cc(C(C)C)c(O)cc2O)n1-c1ccc(C(=O)N2CCN(c3cc(C)c(OC(=O)Nc4cccc5c4CN(C4CCC(=O)NC4=O)C5=O)c(C)c3)CC2)cc1 (stereo not drawn)", "% Remaining (1 h), %": 82.0}

---

assay: Chemical properties of SDC-TRAP-0063; format: physicochemical; conditions: organic solvent or mixture; In PEG300

{"Query smiles": "CCc1c2c(nc3ccc(OC(=O)N4CCC(CCn5ccc6cc(-n7c(O)nnc7-c7cc(C(C)C)c(O)cc7O)ccc65)CC4)cc13)-c1cc3c(c(=O)n1C2)COC(=O)[C@]3(O)CC", "solubility / µg/mL": 5640}

---

System: HER2
Assay: HER2 degradation assay with BT-474 cell line (Example 12, FACS)
Type: cell-based, human
Settings: BT-474 cells, overnight
From the text: HER2 has emerged as a key target for anticancer drugs due to its intrinsic involvement in the phosphatidylinositol-3-kinase-Akt/protein kinase B (PI3K-Akt) and the mitogen-activated protein kinase (MAPK) pathways, both of which suppress apoptosis and promote tumor cell survival, gene transcription, angiogenesis, cellular proliferation, migration, mitosis, and differentiation. The degradation of HER2 is a measure of efficacy of anticancer therapeutics that target Hsp90. […]
Catalogue of IC50 readings, one per entry.
Observable: IC50 (nM)

{"Molecule": "CC(C)c1cc(-c2nnc(O)n2-c2ccc(CN3CCN(C(=O)CCCc4nc5cc(N(CCCl)CCCl)ccc5n4C)CC3)cc2)c(O)cc1O", "Target under test": "HER2", "Qual": "=", "Assay result": 1230}
{"Molecule": "CCNC(=O)c1nnc(-c2cc(C(C)C)c(O)cc2O)n1-c1ccc(C(=O)N2CCN(c3cc(C)c(OC(=O)Nc4cccc5c4CN(C4CCC(=O)NC4=O)C5=O)c(C)c3)CC2)cc1 (stereo not shown)", "Target under test": "HER2", "Qual": "=", "Assay result": 91}
{"Molecule": "CCNC(=O)c1nnc(-c2cc(C(C)C)c(O)cc2O)n1-c1ccc(OC2CCN(c3cnc(C(=O)N[C@H]4C[C@H](O[C@H]5C[C@](O)(C(=O)CO)Cc6c(O)c7c(c(O)c65)C(=O)c5c(OC)cccc5C7=O)O[C@@H](C)[C@H]4O)cn3)CC2)cc1", "Target under test": "HER2", "Qual": ">", "Assay result": 10000}
{"Molecule": "CCOC(=O)c1nnc(-c2cc(C(C)C)c(O)cc2O)n1-c1ccc(CN2CCC(C(=O)N[C@H]3C[C@H](O[C@H]4C[C@](O)(C(=O)CO)Cc5c(O)c6c(c(O)c54)C(=O)c4c(OC)cccc4C6=O)O[C@@H](C)[C@H]3O)CC2)cc1", "Target under test": "HER2", "Qual": ">", "Assay result": 10000}

Data origin: patent US10828315B2
